Molecular target: T1, SX17 chimera (Drosophila melanogaster / Sciara …, UniProt Q86QM9 1-71+=R+P19339:125-354, internal_change)
T1 sequence: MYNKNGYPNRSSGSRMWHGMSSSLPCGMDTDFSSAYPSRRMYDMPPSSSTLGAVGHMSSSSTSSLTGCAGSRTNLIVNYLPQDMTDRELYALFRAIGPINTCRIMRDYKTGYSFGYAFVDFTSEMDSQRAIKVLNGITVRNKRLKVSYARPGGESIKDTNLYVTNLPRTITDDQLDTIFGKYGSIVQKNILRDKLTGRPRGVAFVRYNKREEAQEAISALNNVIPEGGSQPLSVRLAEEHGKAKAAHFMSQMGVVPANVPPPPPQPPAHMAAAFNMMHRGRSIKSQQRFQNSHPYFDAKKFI
Assay: EMSA; apparent Kd, Hill fit; error 95% CI; 20 mM Hepes pH 8.0, 0.1 M KCl, 0.5 mM EDTA, 1 mM DTT, 0.05% NP40, 20% glycerol, 3 µg yeast tRNA; 5 min on ice, then 10 min at room temperature with RNA; 5% native PAGE, 0.25x TBE
Settings: protein: recombinant; tags: GST; label: fluorescein (RNA labelling mix)
pKd: −log10 of the molar value.

BINDER: ACAUAUUUUUUUUCACAGC (ssRNA) [single poly(U) SXL site]
pKd: 3.46
